targetOrTestSystem: MDM2 SWIB domain from Oncorhynchus kisutch (coho salmon) (Oncorhynchus kisutch (coho salmon))
methodNotes: fluorescence polarisation; displacement: complex of MDM2 (0.2-2 μM) and FITC-p53TAD_(human)^15–26 (15 nM) displaced by increasing unlabeled p53TAD peptide or p53TAD^full-length; KD calculated from IC50 (Nikolovska-Coleska et al. 2004); 20 mM sodium phosphate pH 7.4, 150 mM NaCl, 1 mM TCEP
Where no end group is shown, it is not given here.
outcomeMeasure: pKd
Reminder that pKd means the negative base-10 logarithm of the concentration expressed in mol/L.

Record Ac-GQCSFQQLWESNM [Oncorhynchus kisutch (coho salmon) p53TADP1a p53TAD^15–27] . Reported pKd: 5.68

Record Ac-SQESFEDLWKMNL [Oncorhynchus kisutch p53TADP2 p53TAD^15–27] . Reported pKd: 5.94

Record Ac-SQGSFQQLWETNM [Oncorhynchus kisutch p53TADP1b p53TAD^15–27] . Reported pKd: 5.46
